# Test system: TFEB-GFP (pcDNA3.1-TFEB-GFP) (Homo sapiens)
# Sequence (P19484 whole entry, the tested form may be a part): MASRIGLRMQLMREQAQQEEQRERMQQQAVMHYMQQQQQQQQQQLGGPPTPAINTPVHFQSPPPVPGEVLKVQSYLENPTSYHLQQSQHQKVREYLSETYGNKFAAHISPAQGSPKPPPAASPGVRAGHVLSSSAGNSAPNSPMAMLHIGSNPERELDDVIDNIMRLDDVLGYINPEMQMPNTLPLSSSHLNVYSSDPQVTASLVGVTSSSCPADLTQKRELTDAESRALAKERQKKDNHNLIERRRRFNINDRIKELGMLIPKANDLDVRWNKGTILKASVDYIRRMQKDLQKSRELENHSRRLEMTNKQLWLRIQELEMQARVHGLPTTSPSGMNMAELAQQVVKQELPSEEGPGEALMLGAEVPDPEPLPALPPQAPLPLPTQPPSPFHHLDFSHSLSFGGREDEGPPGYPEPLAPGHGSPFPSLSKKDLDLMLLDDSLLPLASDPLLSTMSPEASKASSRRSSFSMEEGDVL
# Assay explanation: microscale thermophoresis, GFP-fusion in cell lysate
Endpoint: Kd
// unit must come after the numeric part

Request: # query: Kd | item "COc1cc(O)c2c(=O)cc(-c3ccc(OC)c(-c4c(O)cc(O)c5c(=O)cc(-c6ccc(O)cc6)oc45)c3)oc2c1" | system: TFEB-GFP (pcDNA3.1-TFEB-GFP) (Homo sapiens)
Result: 28 µM
